- TESTED_TARGET: T1, Human IL-17A重组蛋白 (IL-17A-His) (human, UniProt Q16552 24-155, biotin label in the ELISA of Example 2 (Biotin-IL-17A-His); site not stated)
- T1 construct: also called IL-17A抗原蛋白; Biotin-IL-17A-His
- T1 sequence (Q16552 other isoform, or with tags, fused parts or gaps limits assumed): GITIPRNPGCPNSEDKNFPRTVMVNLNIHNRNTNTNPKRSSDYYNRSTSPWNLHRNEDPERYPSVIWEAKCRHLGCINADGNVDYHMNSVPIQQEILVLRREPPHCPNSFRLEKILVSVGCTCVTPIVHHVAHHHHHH
- PROCEDURE_SUMMARY: ELISA, antibody coated at 2 ug/mL, Biotin-IL-17A-His titrated from 10 ug/mL (5-fold, 7 points), HRP-streptavidin

{"BINDER": "单域抗体(1)(1-C11) (Fc fusion) DVQLVESGGGLVQPGGSLRLSCAASESLLRLYAMGWYRQLPGQEREWVAIHTTSDTTNYRDSVKGRFTLSRDVATNTIYLQMTSLKPEDTAVYYCHVTSMRDSQNYWGQGTQVTVSS", "EC50 / µg/mL": 30}
